Data provenance: the supplement of paper PMC8728848

Target: Gal(b1-4)GlcNAc(b1-2)Man(a1-3)[Gal(b1-4)GlcNAc(b1-2)Man(a1-6)][Gal(b1-4)GlcNAc(b1-4)]Man(b1-4)GlcNAc(b1-4)[Fuc(a1-6)]GlcNAc
Experiment: glycan array binding signal (z-score within array); higher = stronger binding
Conditions: glycan notation: IUPAC condensed, linker removed
Shown is part of a subset that was picked to be rich in the strongest signals.
reported-endpoint: glycan array binding signal (z-score)
Respond using a number only.

// below: answered binders
binder	glycan array binding signal (z-score)
DrGal3 (Danio rerio) (protein) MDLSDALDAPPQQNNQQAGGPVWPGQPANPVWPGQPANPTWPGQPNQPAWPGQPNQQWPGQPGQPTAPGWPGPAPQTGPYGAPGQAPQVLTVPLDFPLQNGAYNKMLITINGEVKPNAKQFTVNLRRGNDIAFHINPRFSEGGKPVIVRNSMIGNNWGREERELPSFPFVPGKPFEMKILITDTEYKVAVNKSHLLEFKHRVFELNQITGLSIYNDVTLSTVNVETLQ	-0.247
Langerin K313I (Homo sapiens), Q9UJ71 (protein) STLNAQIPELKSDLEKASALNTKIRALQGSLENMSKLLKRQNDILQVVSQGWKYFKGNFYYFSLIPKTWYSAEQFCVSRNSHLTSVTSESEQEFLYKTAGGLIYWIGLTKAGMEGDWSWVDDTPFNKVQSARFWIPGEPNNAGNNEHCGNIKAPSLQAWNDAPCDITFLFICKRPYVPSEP	-0.254
PpFlo1 (Pichia pastoris) (protein) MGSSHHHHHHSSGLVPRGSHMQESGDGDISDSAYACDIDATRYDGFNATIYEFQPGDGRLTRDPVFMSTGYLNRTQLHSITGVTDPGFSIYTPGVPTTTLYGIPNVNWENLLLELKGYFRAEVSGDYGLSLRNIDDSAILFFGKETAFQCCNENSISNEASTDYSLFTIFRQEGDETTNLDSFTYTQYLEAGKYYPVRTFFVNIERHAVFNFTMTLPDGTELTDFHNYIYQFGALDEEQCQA	0.235
NPA (Narcissus pseudonarcissus), C0HM45 (protein) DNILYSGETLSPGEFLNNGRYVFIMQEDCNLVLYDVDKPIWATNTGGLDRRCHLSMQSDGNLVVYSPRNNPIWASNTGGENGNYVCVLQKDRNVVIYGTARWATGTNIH	-0.143

Query Mermaid2 (Stilbonema majum) (protein) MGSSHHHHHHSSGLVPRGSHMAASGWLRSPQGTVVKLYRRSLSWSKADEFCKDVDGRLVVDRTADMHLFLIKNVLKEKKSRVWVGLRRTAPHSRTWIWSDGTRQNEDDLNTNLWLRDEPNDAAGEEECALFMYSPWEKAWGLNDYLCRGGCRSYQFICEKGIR yields glycan array binding signal (z-score) of -0.652
